Molecular target: T1, human APJ receptor (hAPJ) (human, UniProt P35414 1-380)
T1 sequence (looked up): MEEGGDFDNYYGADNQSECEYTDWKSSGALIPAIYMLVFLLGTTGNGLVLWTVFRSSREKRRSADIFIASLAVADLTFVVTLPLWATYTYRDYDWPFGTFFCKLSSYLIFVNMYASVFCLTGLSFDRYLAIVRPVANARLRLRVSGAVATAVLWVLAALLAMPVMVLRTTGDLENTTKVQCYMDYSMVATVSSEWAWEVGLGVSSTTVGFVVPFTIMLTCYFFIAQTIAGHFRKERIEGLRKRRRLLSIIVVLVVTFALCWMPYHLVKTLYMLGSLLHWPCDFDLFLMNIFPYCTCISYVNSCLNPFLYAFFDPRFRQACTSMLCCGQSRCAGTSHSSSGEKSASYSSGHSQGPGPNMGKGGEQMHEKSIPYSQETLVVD
Test: cell-based or functional assay
Bridges are numbered along the chain shown (N, C = ends). Where no end group is shown, it is not given here. [ ]: non-standard residue; d: D form. The star is where a group is joined. Palmitoyl = CCCCCCCCCCCCCCCC(=O)*; Myristoyl = CCCCCCCCCCCCCC(=O)*; pGlu = O=C1CC[C@@H](C(=O)O)N1; NHPhenethyl = c1ccc(CCN*)cc1; Nle = CCCC[C@H](N)C(=O)O; Api = NC1(C(=O)O)CCNCC1; AEEA = NCCOCCOCC(=O)O; Aib = CC(C)(N)C(=O)O; Inp = O=C(O)C1CCNCC1
experimental readout: hAPJ Ca2+ Flux EC50

INSERT INTO measurements (binder, result) VALUES
  ('[pGlu]RPRLCH[Api]GP[Nle]CF-OH (disulfide 6-12; SMILES CCCC[C@@H]1NC(=O)[C@@H]2CCCN2C(=O)CNC(=O)C2(CCNCC2)NC(=O)[C@H](Cc2c[nH]cn2)NC(=O)[C@@H](NC(=O)[C@H](CC(C)C)NC(=O)[C@H](CCCNC(=N)N)NC(=O)[C@@H]2CCCN2C(=O)[C@H](CCCNC(=N)N)NC(=O)[C@@H]2CCC(=O)N2)CSSC[C@@H](C(=O)N[C@@H](Cc2ccccc2)C(=O)O)NC1=O) [Example 21: pE-R-P-R-L-C-H-(4-NH-Isn)-G-P-Nle-C-F-OH]', '75.8 nM'),
  ('[pGlu]RPRLCHKGP[Nle]C-NHPhenethyl (disulfide 6-12) [Example 12: pE-R-P-R-L-C-H-K-G-P-Nle-C-Phenethylamine]', '2.07 nM'),
  ('[pGlu]RPRLKHFGP[Nle]E (lactam 6-12 (inferred); not fully specified (C-terminus); printed as pE-R-P-R-L-K-H-F-G-P-Nle-E-Phenethylamine) [Example 2: pE-R-P-R-L-K-H-F-G-P-Nle-E-Phenethylamine]', '133 nM'),
  ('[Inp]RPRLC[Aib]KGP[Nle]C[dF]-OH (disulfide 6-12; N-terminus assumed; SMILES CCCC[C@@H]1NC(=O)[C@@H]2CCCN2C(=O)CNC(=O)[C@H](CCCCN)NC(=O)C(C)(C)NC(=O)[C@@H](NC(=O)[C@H](CC(C)C)NC(=O)[C@H](CCCNC(=N)N)NC(=O)[C@@H]2CCCN2C(=O)[C@H](CCCNC(=N)N)NC(=O)C2CCNCC2)CSSC[C@@H](C(=O)N[C@H](Cc2ccccc2)C(=O)O)NC1=O) [Example 11: p-Isn-R-P-R-L-C-Aib-K-G-P-Nle-C-f-OH]', '3.52 nM'),
  ('Palmitoyl-[AEEA]QRPRLCHKGP[Nle]CF-OH (disulfide 7-13; SMILES CCCCCCCCCCCCCCCC(=O)NCCOCCOCC(=O)N[C@@H](CCC(N)=O)C(=O)N[C@@H](CCCNC(=N)N)C(=O)N1CCC[C@H]1C(=O)N[C@@H](CCCNC(=N)N)C(=O)N[C@@H](CC(C)C)C(=O)N[C@H]1CSSC[C@@H](C(=O)N[C@@H](Cc2ccccc2)C(=O)O)NC(=O)[C@H](CCCC)NC(=O)[C@@H]2CCCN2C(=O)CNC(=O)[C@H](CCCCN)NC(=O)[C@H](Cc2c[nH]cn2)NC1=O) [Example 24: Palmitoyl-O2Oc-Q-R-P-R-L-C-H-K-G-P-Nle-C-F-OH]', '32.6 nM'),
  ('H-RPRLCHKGP[Nle]CF-OH (disulfide 5-11; SMILES CCCC[C@@H]1NC(=O)[C@@H]2CCCN2C(=O)CNC(=O)[C@H](CCCCN)NC(=O)[C@H](Cc2c[nH]cn2)NC(=O)[C@@H](NC(=O)[C@H](CC(C)C)NC(=O)[C@H](CCCNC(=N)N)NC(=O)[C@@H]2CCCN2C(=O)[C@@H](N)CCCNC(=N)N)CSSC[C@@H](C(=O)N[C@@H](Cc2ccccc2)C(=O)O)NC1=O) [Example 16: H-R-P-R-L-C-H-K-G-P-Nle-C-F-OH]', '1.43 nM'),
  ('[pGlu]RPRLCHFGP[Nle]C-NHPhenethyl (disulfide 6-12; SMILES CCCC[C@@H]1NC(=O)[C@@H]2CCCN2C(=O)CNC(=O)[C@H](Cc2ccccc2)NC(=O)[C@H](Cc2c[nH]cn2)NC(=O)[C@@H](NC(=O)[C@H](CC(C)C)NC(=O)[C@H](CCCNC(=N)N)NC(=O)[C@@H]2CCCN2C(=O)[C@H](CCCNC(=N)N)NC(=O)[C@@H]2CCC(=O)N2)CSSC[C@@H](C(=O)NCCc2ccccc2)NC1=O) [Example 19: pE-R-P-R-L-C-H-F-G-P-Nle-C-Phenethylamine]', '8.46 nM'),
  ('[pGlu]RPRLCHKGP[Nle]CF-OH (disulfide 6-12) [Example 8: pE-R-P-R-L-C-H-K-G-P-Nle-C-F-OH]', '1.04 nM'),
  ('Myristoyl-[AEEA][AEEA][AEEA]QRPRLCHKGP[Nle]C[dF]-OH (disulfide 9-15; SMILES CCCCCCCCCCCCCC(=O)NCCOCCOCC(=O)NCCOCCOCC(=O)NCCOCCOCC(=O)N[C@@H](CCC(N)=O)C(=O)N[C@@H](CCCNC(=N)N)C(=O)N1CCC[C@H]1C(=O)N[C@@H](CCCNC(=N)N)C(=O)N[C@@H](CC(C)C)C(=O)N[C@H]1CSSC[C@@H](C(=O)N[C@H](Cc2ccccc2)C(=O)O)NC(=O)[C@H](CCCC)NC(=O)[C@@H]2CCCN2C(=O)CNC(=O)[C@H](CCCCN)NC(=O)[C@H](Cc2c[nH]cn2)NC1=O) [Example 59: Myristoyl-O2Oc-O2Oc-O2Oc-Q-R-P-R-L-C-H-K-G-P-Nle-C-f-OH]', '10 nM'),
  ('[pGlu]RPRLCHKRP[Nle]CF-OH (disulfide 6-12; SMILES CCCC[C@@H]1NC(=O)[C@@H]2CCCN2C(=O)[C@H](CCCNC(=N)N)NC(=O)[C@H](CCCCN)NC(=O)[C@H](Cc2c[nH]cn2)NC(=O)[C@@H](NC(=O)[C@H](CC(C)C)NC(=O)[C@H](CCCNC(=N)N)NC(=O)[C@@H]2CCCN2C(=O)[C@H](CCCNC(=N)N)NC(=O)[C@@H]2CCC(=O)N2)CSSC[C@@H](C(=O)N[C@@H](Cc2ccccc2)C(=O)O)NC1=O) [Example 45: pE-R-P-R-L-C-H-K-R-P-Nle-C-F-OH]', '6.55 nM');
